Reported koff by item:
# TEST TARGET: T1, Soluble heterodimeric CD3 protein (hCD3-epsilon/hCD3-delta) with either a human Fc tag (hFcΔAdp/hFc) or a … (human, UniProt P07766 23-126; P04234 22-105)
# T1 construct: also called hCD3ε/δ; not shown: Fc tag: human (hFcΔAdp/hFc)
# T1 sequence (P07766 23-126 limits assumed, stated change not applied, chain 1 of 2): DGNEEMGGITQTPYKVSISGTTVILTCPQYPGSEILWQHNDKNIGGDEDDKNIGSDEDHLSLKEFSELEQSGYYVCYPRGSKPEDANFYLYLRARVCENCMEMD
# T1 sequence (P04234 22-105 limits assumed, stated change not applied, chain 2 of 2): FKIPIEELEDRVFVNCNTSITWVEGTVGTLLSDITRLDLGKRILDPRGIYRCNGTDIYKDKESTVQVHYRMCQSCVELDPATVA
# ASSAY EXPLANATION: SPR Biacore 25C antigen-capture
# Experimental: Measurements were conducted on a T200 Biacore™ instrument. In the antigen-capture format, heterodimeric CD3 protein was captured using a rabbit anti-mouse Fc or mouse anti-human Fc and the respective antibodies were injected over the captured antigen. Kinetic association (kₐ) and dissociation (kd) rate constants were determined by processing and fitting the data to a 1:1 binding model using Scrubber 2.0 curve fitting software. […]

Note to self: koff recorded for H2M2886N (antibody, mouse IgG2, V domains shown, H2M: mouse IgG2 Fc, human variable regions; divalent) VH: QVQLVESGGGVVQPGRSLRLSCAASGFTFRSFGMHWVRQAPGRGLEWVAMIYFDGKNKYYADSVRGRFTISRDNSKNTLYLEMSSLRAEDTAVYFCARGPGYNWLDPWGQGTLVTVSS VL: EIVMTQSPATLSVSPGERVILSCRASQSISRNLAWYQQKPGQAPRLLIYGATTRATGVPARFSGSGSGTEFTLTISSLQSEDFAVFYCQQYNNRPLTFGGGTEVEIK was 0.000136 s⁻¹

Quick note, koff for H1H5799P (antibody, human IgG1, V domains shown, H1H: human IgG1 Fc; divalent) VH: QVQLVQSGAEVKKPGASVKVSCKASGYTFIGYYMHWVRQAPGQGLEWMGWINPKSGGTNYAQKFQGRVTMTGDTSISTAYMELSRLRSDDTAVFYCARMGDGAMFDYWGQGTLVTVSS VL: DIQMTQSPSSLSASVGDRVTITCRASQRISSYLNWYQQKAGKAPKVLIYTASSLQSGVPSRFSGSGSGTDFTLTISSLQPEDFATYYCQQSYSTPLTFGGGTKVEIK landed at 0.00564 s⁻¹

Data provenance is patent US20190127480A1.
